- setupConditions: in acetone, 296.75 K
readoutName: solubility (mole fraction)
Just the number.

Bench note: what solubility (mole fraction) did CC(=O)O[C@H]1CC[C@@]2(C)C(=CC[C@@H]3[C@@H]2CC[C@]2(C)C(C(C)=O)=CC[C@@H]32)C1 show?
0.008

---

- setupConditions: in acetone, 288.65 K
readoutName: solubility (mole fraction)
Just the number.

Bench note: what solubility (mole fraction) did CC(=O)O[C@H]1CC[C@@]2(C)C(=CC[C@@H]3[C@@H]2CC[C@]2(C)C(C(C)=O)=CC[C@@H]32)C1 show?
0.00622

---

- setupConditions: in cyclohexane, 315.9 K
readoutName: solubility (mole fraction)

Bench note: what solubility (mole fraction) did CC(=O)O[C@H]1CC[C@@]2(C)C(=CC[C@@H]3[C@@H]2CC[C@]2(C)C(C(C)=O)=CC[C@@H]32)C1 show?
0.00662

---

- setupConditions: in methanol, 318.35 K
readoutName: solubility (mole fraction)
Just the number.

Bench note: what solubility (mole fraction) did CC(=O)O[C@H]1CC[C@@]2(C)C(=CC[C@@H]3[C@@H]2CC[C@]2(C)C(C(C)=O)=CC[C@@H]32)C1 show?
0.00215

---

- setupConditions: in acetone, 299.05 K
readoutName: solubility (mole fraction)

Bench note: what solubility (mole fraction) did CC(=O)O[C@H]1CC[C@@]2(C)C(=CC[C@@H]3[C@@H]2CC[C@]2(C)C(C(C)=O)=CC[C@@H]32)C1 show?
0.00875

---

- setupConditions: in cyclohexane, 332.25 K
readoutName: solubility (mole fraction)

Bench note: what solubility (mole fraction) did CC(=O)O[C@H]1CC[C@@]2(C)C(=CC[C@@H]3[C@@H]2CC[C@]2(C)C(C(C)=O)=CC[C@@H]32)C1 show?
0.0135

---

- setupConditions: in cyclohexane, 327.85 K
readoutName: solubility (mole fraction)
Just the number.

Bench note: what solubility (mole fraction) did CC(=O)O[C@H]1CC[C@@]2(C)C(=CC[C@@H]3[C@@H]2CC[C@]2(C)C(C(C)=O)=CC[C@@H]32)C1 show?
0.0112

---

- setupConditions: in cyclohexane, 320.15 K
readoutName: solubility (mole fraction)
Just the number.

Bench note: what solubility (mole fraction) did CC(=O)O[C@H]1CC[C@@]2(C)C(=CC[C@@H]3[C@@H]2CC[C@]2(C)C(C(C)=O)=CC[C@@H]32)C1 show?
0.00767

---

- setupConditions: in cyclohexane, 291.95 K
readoutName: solubility (mole fraction)
Just the number.

Bench note: what solubility (mole fraction) did CC(=O)O[C@H]1CC[C@@]2(C)C(=CC[C@@H]3[C@@H]2CC[C@]2(C)C(C(C)=O)=CC[C@@H]32)C1 show?
0.00212

---

- setupConditions: in acetone, 301.55 K
readoutName: solubility (mole fraction)
Just the number.

Bench note: what solubility (mole fraction) did CC(=O)O[C@H]1CC[C@@]2(C)C(=CC[C@@H]3[C@@H]2CC[C@]2(C)C(C(C)=O)=CC[C@@H]32)C1 show?
0.00955

---

- setupConditions: in ethanol, 321.35 K
readoutName: solubility (mole fraction)

Bench note: what solubility (mole fraction) did CC(=O)O[C@H]1CC[C@@]2(C)C(=CC[C@@H]3[C@@H]2CC[C@]2(C)C(C(C)=O)=CC[C@@H]32)C1 show?
0.00503

---

- setupConditions: in methanol, 291.95 K
readoutName: solubility (mole fraction)
Just the number.

Bench note: what solubility (mole fraction) did CC(=O)O[C@H]1CC[C@@]2(C)C(=CC[C@@H]3[C@@H]2CC[C@]2(C)C(C(C)=O)=CC[C@@H]32)C1 show?
0.000632
